Data origin: paper PMC5209882

- target-system: CgAKR-1 (Coptotermes gestroi, UniProt A0A140CVV2)
- Sequence (A0A140CVV2 1-334): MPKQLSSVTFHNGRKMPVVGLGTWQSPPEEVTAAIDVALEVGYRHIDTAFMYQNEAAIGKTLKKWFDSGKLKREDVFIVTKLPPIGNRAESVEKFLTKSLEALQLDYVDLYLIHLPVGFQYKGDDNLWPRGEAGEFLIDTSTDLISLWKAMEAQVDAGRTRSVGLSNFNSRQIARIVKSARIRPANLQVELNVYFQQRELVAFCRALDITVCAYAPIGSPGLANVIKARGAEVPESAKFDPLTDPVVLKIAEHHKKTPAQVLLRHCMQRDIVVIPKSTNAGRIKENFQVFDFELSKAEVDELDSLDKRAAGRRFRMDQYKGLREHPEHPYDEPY
measured-property: pKd
Please report pKd as the negative decimal logarithm of the molar concentration, giving only the number.

response.value for NC(=O)C1=CN([C@@H]2O[C@H](COP(=O)(O)OP(=O)(O)OC[C@H]3O[C@@H](n4cnc5c(N)ncnc54)[C@H](OP(=O)(O)O)[C@@H]3O)[C@@H](O)[C@H]2O)C=CC1 (field: pKd) = 4.22
